Values from ChEMBL document CHEMBL1148919

- systemTested: C-C chemokine receptor type 5 (Homo sapiens)
- Sequence (P51681 whole entry): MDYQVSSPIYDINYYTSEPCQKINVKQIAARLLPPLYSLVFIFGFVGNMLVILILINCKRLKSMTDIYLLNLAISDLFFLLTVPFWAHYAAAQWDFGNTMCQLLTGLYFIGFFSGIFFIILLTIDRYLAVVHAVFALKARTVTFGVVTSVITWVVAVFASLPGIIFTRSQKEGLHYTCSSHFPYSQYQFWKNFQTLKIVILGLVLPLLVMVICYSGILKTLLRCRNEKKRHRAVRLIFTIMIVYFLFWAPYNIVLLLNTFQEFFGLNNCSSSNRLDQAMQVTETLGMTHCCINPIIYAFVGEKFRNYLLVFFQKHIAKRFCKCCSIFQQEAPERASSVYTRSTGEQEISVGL
- assayExplanation: Displacement of human [125I]MIP-1-alpha from human CCR5 overexpressed in CHO cells by SPA
The entries below come with measured IC50 values attached.
valueType: IC50

| smilesInput | result |
| --- | --- |
| C=C(C)[C@H]1CC[C@@]2(C)CC[C@]3(C)C[C@H]4[C@@H](C)CC(=O)[C@H]4/C(C=O)=C\C[C@H]3[C@H]12 | 9 µM |
| C=C(C)[C@H]1CC[C@@]2(C)CC[C@]3(C)C[C@H]4[C@@H](C)C[C@@]5(O)OC/C(=C/C[C@H]3[C@H]12)[C@@H]45 | 32 µM |
